Recorded measurements of % Activation, one per entry
Target: ΔF508-CFTR (Homo sapiens, UniProt P13569, DEL508-508)
Construct: host or cells: CFBE41o-, doxycycline-inducible
Sequence (P13569 with tags, fused parts or gaps DEL508-508): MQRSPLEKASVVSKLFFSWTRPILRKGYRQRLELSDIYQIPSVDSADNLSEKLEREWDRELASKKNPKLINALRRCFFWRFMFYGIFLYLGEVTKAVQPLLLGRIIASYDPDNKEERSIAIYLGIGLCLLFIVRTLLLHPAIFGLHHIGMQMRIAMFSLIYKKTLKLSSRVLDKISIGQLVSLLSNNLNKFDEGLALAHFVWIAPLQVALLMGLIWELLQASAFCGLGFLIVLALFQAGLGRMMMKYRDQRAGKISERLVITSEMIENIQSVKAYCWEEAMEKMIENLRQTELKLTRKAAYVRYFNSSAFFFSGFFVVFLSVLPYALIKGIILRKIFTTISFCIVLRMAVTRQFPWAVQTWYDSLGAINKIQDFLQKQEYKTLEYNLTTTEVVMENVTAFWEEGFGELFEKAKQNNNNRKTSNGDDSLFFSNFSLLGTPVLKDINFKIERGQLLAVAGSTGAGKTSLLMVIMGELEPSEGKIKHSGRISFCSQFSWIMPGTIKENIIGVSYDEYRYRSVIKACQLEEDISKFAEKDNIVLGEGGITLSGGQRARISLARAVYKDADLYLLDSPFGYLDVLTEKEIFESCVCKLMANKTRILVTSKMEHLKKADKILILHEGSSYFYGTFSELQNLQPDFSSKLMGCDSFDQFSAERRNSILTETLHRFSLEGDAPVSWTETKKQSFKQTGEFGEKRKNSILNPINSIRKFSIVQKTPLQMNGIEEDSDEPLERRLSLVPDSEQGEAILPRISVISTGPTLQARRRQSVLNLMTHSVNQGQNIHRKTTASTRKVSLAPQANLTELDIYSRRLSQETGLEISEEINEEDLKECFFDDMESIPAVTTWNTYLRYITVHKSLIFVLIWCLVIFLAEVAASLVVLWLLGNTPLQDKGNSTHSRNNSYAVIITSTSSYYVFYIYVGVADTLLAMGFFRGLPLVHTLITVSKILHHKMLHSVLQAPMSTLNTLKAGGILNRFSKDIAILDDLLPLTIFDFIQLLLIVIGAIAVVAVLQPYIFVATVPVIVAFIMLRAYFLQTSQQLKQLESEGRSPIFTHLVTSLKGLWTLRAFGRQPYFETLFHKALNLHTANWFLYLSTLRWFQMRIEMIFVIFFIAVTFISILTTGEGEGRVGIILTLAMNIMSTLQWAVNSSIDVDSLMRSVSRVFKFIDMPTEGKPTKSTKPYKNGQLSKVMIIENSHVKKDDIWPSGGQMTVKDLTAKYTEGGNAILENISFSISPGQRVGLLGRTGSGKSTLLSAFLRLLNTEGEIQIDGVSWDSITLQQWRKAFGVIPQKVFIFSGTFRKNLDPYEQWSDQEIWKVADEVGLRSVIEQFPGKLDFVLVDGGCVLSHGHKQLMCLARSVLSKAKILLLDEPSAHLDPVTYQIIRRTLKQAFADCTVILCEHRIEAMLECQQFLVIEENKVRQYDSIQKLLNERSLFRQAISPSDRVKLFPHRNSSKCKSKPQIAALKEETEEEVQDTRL
Test: CFTR cell surface levels using HRP-tagged ΔF508-CFTR expressing CFBE cells, intrinsic corrector capacity
Format: cell-based
Set-up: concentration or dose not given beside the values
Conditions: HRP-tagged ΔF508-CFTR expressing CFBE41o- cells; compound alone (intrinsic corrector capacity); 20 hours at 33° C.

Here is how some compounds turned out for % Activation.
CC(C)c1nn(C2CCCCC2)c2nc(C(=O)NS(C)(=O)=O)cc(-c3ccc(N4CCCC(F)C4)nc3)c12 (stereo not drawn) [Compound 108] ... 218.05%
COC(=O)N1CCN(C2CCN(c3cc(C(=O)NS(=O)(=O)N(C)C)nc4c3c(C3CCC3)nn4-c3ccc(F)cc3)CC2)CC1 [Compound 492] ... 311%
CCCN(CC)S(=O)(=O)NC(=O)c1cc(OCC2CCOCC2)c2c(C3CCC3)nn(-c3ccccc3)c2n1 [Compound 355] ... 102.4%
CCS(=O)(=O)NC(=O)c1cc(-c2ccc(N3CCOCC3)cc2)c2c(C)nn(-c3cccc(Cl)c3)c2n1 [Compound 66] ... 142.65%
CC(C)Oc1nn(C2CCCCC2)c2nc(C(=O)NS(C)(=O)=O)cc(-c3ccc(CN4CCN(C)CC45COC5)cc3)c12 [Compound 641] ... 205.35%

Returns the measured % Activation for the input compound. Input: CN(C)S(=O)(=O)NC(=O)c1cc(OCC2CCOCC2)c2c(C3CCC3)nn(-c3ccccc3)c2n1 [Compound 334] 121.75%

I am curious: what % Activation value has been reported for COCC1CN(c2cc(C(=O)NS(C)(=O)=O)nc3c2c(C2CCC2)nn3-c2ccccc2)C1 [Compound 193] ? 175.23%

Would you mind telling me what % Activation value was observed for CN1CCCN(C(=O)c2cc(N3CCC(N4CCOCC4)CC3)c3c(C4CCC4)nn(-c4ccccc4)c3n2)S1(=O)=O [Compound 664] ? 70.082%

Reported % Activation, compound CC(C)c1nn(-c2cccc(N(C)C)c2)c2nc(C(=O)NS(C)(=O)=O)cc(N3CCCCC3)c12 [Compound 157] : ____ 327.8%

Value lookup for % Activation; key = CS(=O)(=O)NC(=O)c1cc(-c2ccc(N3CCC(C#N)CC3)nc2)c2c(C3CCC3)nn(C3CCCCC3)c2n1 [Compound 104] 239.6%

Sample O=C(NS(=O)(=O)N1CCC(F)CC1)c1cc(N2CCC(CN3CCCC3)CC2)c2c(C3CCC3)nn(-c3ccccc3)c2n1 [Compound 459] — what was its % Activation? 225.65%

Any idea what % Activation was measured for CC(C)N1CCN(C2CCN(c3cc(C(=O)NS(=O)(=O)N(C)C)nc4c3c(C3CCC3)nn4-c3ccc(F)cc3)CC2)CC1 [Compound 382] ? 305.9%

Consider the compound shown here: COC1CCN(C2CCN(c3cc(C(=O)NS(N)(=O)=O)nc4c3c(C3CCC3)nn4-c3ccc(F)cc3)CC2)CC1 [Compound 630] What is its recorded % Activation? 339.64%

Returns the measured % Activation for the input compound. Input: CO[C@H]1C[C@@H](c2nn(-c3ccccc3)c3nc(C(=O)NS(C)(=O)=O)cc(-c4ccc(N5CCC(C#N)CC5)nc4)c32)C1 [Compound 194] 213.75%

Data request, read-out % Activation, for CC(C)(C)c1nn(C2CCCC2)c2nc(C(=O)NS(C)(=O)=O)cc(-c3ccc(N4CCOCC4)nc3)c12 [Compound 12] 161.15%

Please give the measured % Activation for this compound: Cc1nn(-c2ccccc2)c2nc(C(=O)NS(C)(=O)=O)cc(-c3ccc(N4CCC(N(C)C)C4)cc3)c12 (stereo not drawn) [Compound 100] 113%

Fill in: % Activation of CC(C)Oc1nn(-c2ccccc2)c2nc(C(=O)NS(C)(=O)=O)cc(-c3ccc(N4CCOCC4)cc3)c12 [Compound 166] is ___ 235.2%

Recorded % Activation of COCC1CCN(c2cc(C(=O)NS(C)(=O)=O)nc3c2c(C(C)C)nn3CC2CCC2)CC1 [Compound 262] , please. 232.07%

Fill in the blank: the reported % Activation of CC(C)c1nn(-c2ccnc(N3CCOCC3)c2)c2nc(C(=O)NS(=O)(=O)N(C)C)cc(OCC3CCOCC3)c12 [Compound 489] is ____. 99.6%

Reported % Activation for CC(C)c1nn(C2CCCCC2)c2nc(C(=O)NS(C)(=O)=O)cc(-c3ccc(N4CCC(C#N)CC4)cc3)c12 [Compound 80] : what is it? 258.38%

###

Biological target: ΔF508-CFTR (Homo sapiens, UniProt P13569, DEL508-508)
Construct: host or cells: CFBE41o-, doxycycline-inducible
Assay: CFTR cell surface levels using HRP-tagged ΔF508-CFTR expressing CFBE cells, in the presence of a co-corrector
Type: cell-based
Conditions: HRP-tagged ΔF508-CFTR CFBE cells, in the presence of 3 μM co-corrector
// classify: if (% Activation < 300%) Satisfied else Not satisfied

Solved cases below.
CN(C)CCCOc1cc(C(=O)NS(C)(=O)=O)nc2c1c(C1CCC1)nn2-c1ccccc1 ... Not satisfied
O=C(c1cc(N2CCC(N3CCOCC3)CC2)c2c(C3CCC3)nn(-c3ccccc3)c2n1)N1CCCCS1(=O)=O ... Satisfied
CC(C)OC1CCN(c2cc(C(=O)NS(C)(=O)=O)nc3c2c(C2CCC2)nn3-c2ccccc2)CC1 ... Not satisfied

Lab note: % Activation threshold 300%. Does this molecule come in strictly under it? `COCC1CCN(c2cc(C(=O)NS(=O)(=O)CCN3CCOCC3)nc3c2c(C2CCC2)nn3-c2ccccc2)CC1` Not satisfied

Take the molecule `CC(C)c1nn(C2CCCCC2)c2nc(C(=O)NS(C)(=O)=O)cc(-c3ccc(N4CCC(F)(F)C4)nc3)c12` and say whether its % Activation is less than 300%. Not satisfied

Take the molecule `CC(C)(C)S(=O)(=O)NC(=O)c1cc(OCC2CCOCC2)c2c(C3CCC3)nn(-c3ccccc3)c2n1` and say whether its % Activation is less than 300%. Satisfied

###

Biological target: ΔF508-CFTR (Homo sapiens, UniProt P13569, DEL508-508)
Construct: host or cells: CFBE41o-, doxycycline-inducible
Assay: CFTR cell surface levels using HRP-tagged ΔF508-CFTR expressing CFBE cells, in the presence of a co-corrector
Assay type: cell-based
Conditions: HRP-tagged ΔF508-CFTR CFBE cells, in the presence of 3 μM co-corrector; read-out: EC50
ENDPOINT_LABEL: EC50 (µM)
Give the quantity in µM, number only.

COC1CCN(C2CCN(c3cc(C(=O)NS(C)(=O)=O)nc4c3c(C3CCC3)nn4-c3ccc(F)cc3)CC2)CC1 ... 0.553

Lab note: next compound to report on.
Requested read-out: EC50. Entry: `COCCN(CCOC)c1ccc(-c2cc(C(=O)NS(C)(=O)=O)nc3c2c(C(C)C)nn3-c2ccnc(N3CCOCC3)c2)cn1` 1.69

###

Target: ΔF508-CFTR (Homo sapiens, UniProt P13569, DEL508-508)
Construct: host or cells: CFBE41o-, doxycycline-inducible
Test: CFTR cell surface levels using HRP-tagged ΔF508-CFTR expressing CFBE cells, in the presence of a co-corrector
Format: cell-based
Conditions: HRP-tagged ΔF508-CFTR CFBE cells, in the presence of 3 μM co-corrector
Entries annotated with measured % Activation
A number alone suffices; assume %.

Before answering, review these 5 worked examples.
COCC1CCN(c2cc(C(=O)NS(C)(=O)=O)nc3c2c(C(C)C)nn3-c2ccc(F)cc2)CC1 [Compound 168] ... 581.55
CCS(=O)(=O)NC(=O)c1cc(N2CCC(N3CCCCC3)CC2)c2c(C3CCC3)nn(-c3ccccc3)c2n1 [Compound 427] ... 419.5
O=C(NS(=O)(=O)N1CC(F)C1)c1cc(N2CCC(N3CCOCC3)CC2)c2c(C3CCC3)nn(-c3ccc(F)cc3)c2n1 [Compound 569] ... 436.13
COCC1CCN(c2cc(C(=O)NS(=O)(=O)CCNC(C)=O)nc3c2c(C2CCC2)nn3-c2ccccc2)CC1 [Compound 386] ... 385.05
CC(C)Oc1nn(-c2ccccc2)c2nc(C(=O)NS(=O)(=O)C3CC3)cc(-c3ccc(N4CCOCC4)cc3)c12 [Compound 225] ... 427.95

# get_value(readout='% Activation', item= CCOC(=O)N1CCC(c2cc(C(=O)NS(=O)(=O)N(C)C)nc3c2c(C(C)C)nn3-c2ccc(F)cc2)CC1 [Compound 497] ) 378.25

# input molecule: CS(=O)(=O)NC(=O)c1cc(N2CC3(CCCCO3)C2)c2c(C3CCC3)nn(-c3ccccc3)c2n1 [Compound 203] ; wanted: its % Activation 224.63

Sourced from patent US10259810B2
